test: inhibitors of TNFa-induced NFkB p65 translocation, primary screen, imaging, HUVEC, MLSMR starter and 10KST1 sets (AID 438); details: HUVEC TNFa-induced p65 nuclear translocation; at 2 µM, hits give high values unless noted;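 also: compound added about 3h40 before a 20 min TNFalpha stimulation; signal is the nuclear over cytoplasmic p65 intensity ratio per well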

| COMPOUND | VALUE UNITS | inhibition |
| --- | --- | --- |
| CNCC(O)c1ccc(O)cc1 (stereo not given) | % | 3.3 |
| CN1CCN(c2nc3ccccc3c(=O)n2-c2ccccc2)CC1 | % | -2.3 |
| CCCCCCn1c(O)c(C=NCCCn2ccnc2)c(=O)[nH]c1=O | % | -20.1 |
| CCOC(=O)C1SC2(C(F)F)CC1(O)c1c(c(OC)c3occc3c1OC)O2 (stereo not given) | % | -5.1 |
| Nc1ccc(C2(c3ccc(N)cc3)CN3CCC2CC3)cc1 | % | -0.7 |
| C[C@H]1OC[C@@H](C[N+](C)(C)C)O1 | % | -2.2 |
| CN1CCc2nc3sc(C#N)c(N)c3c(-c3cccs3)c2C1 | % | -16.8 |
| CCN1c2nc3c(C)cccn3c(=O)c2CC2(C(=O)N(C)C(=O)N(C)C2=O)C1C (stereo not given) | % | 8.9 |
| Cc1ccc(CS(=O)(=O)CCC(=O)N2CCC3(CC2)OCCO3)cc1 | % | 6 |
| O=C(O)C1(c2ccc(Cl)cc2)CCC1 | % | 7.5 |
| Nc1ccccc1C(=O)OC1CSC1 | % | -8.7 |
| Cc1cc(N2C(=O)C3CCCN3C2c2cccc(Cl)c2)no1 (stereo not given) | % | -3.9 |
| CCn1nc(-c2ccccc2)nc2c(=O)n(C)c(=O)nc1-2 | % | -31.1 |
| C=CCOC(=O)C1=C(C)OC(N)=C(C#N)[C@@]12C(=O)N(CC(N)=O)c1ccccc12 | % | -1.4 |
| CCCCN1C(=O)NC(=O)C2(Cc3c(nc4c(C)cccn4c3=O)N3CCc4ccccc4C32)C1=O (stereo not given) | % | -0.5 |
| COc1ccccc1N1CCN(Cc2cccc(OC)c2O)CC1 | % | -6 |
| Oc1ccc(C2NCc3ccccc3-n3cccc32)cc1Cl (stereo not given) | % | -13.6 |
| CC(=O)OC1(Cc2ccccc2)CN2CCC1c1ccccc12 (stereo not given) | % | -15.2 |
| CCOC(=O)[C@]1(C#N)[C@@H]2C=CC(C(C)=O)=CN2[C@@H](C(N)=O)[C@@H]1c1ccsc1 | % | -5.3 |
| CCN(CC)c1ccc(N=Cc2c(O)n(-c3cc(OC)ccc3OC)c(=O)[nH]c2=O)cc1 | % | 2.1 |
| CC(=C1C(=O)c2ccccc2C1=O)N1CCN(CCN=Cc2c(O)n(C)c(=O)n(C)c2=O)CC1 | % | -2.8 |
| O=C(CN1CCN(Cc2cccc(Cl)c2)C1=O)N1CCC2(CC1)OCCO2 | % | 1.1 |
| COc1ccccc1-n1c(O)c(C=NCCCn2ccnc2)c(=O)[nH]c1=O | % | 3.4 |
| Cc1c(N=Cc2c(O)n(CCc3ccccc3)c(=O)[nH]c2=O)c(=O)n(-c2ccccc2)n1C | % | -20.6 |
| CCCCCCOc1ccc(CN2CCN(C)CC2)cc1 | % | -5 |
| Cc1ccc(O)c(CN2CCN(c3ccccc3)CC2)c1 | % | 1 |
| C=C1CC[C@@]2(O)[C@H]3Cc4ccc(O)c5c4[C@@]2(CCN3CC2CC2)[C@H]1O5 | % | 0.1 |
| CCOC(=O)C1=C(N)OC(C)=C(C(=O)OCCOC)C12C(=O)Nc1ccccc12 (stereo not given) | % | 4.8 |
| OC1(c2ccc(F)cc2)CCNC1 (stereo not given) | % | -8 |
| OC(Cc1ccccc1)(c1ccccc1)C1CN2CCC1CC2 (stereo not given) | % | -8.4 |
| CCOc1ccc(-n2c(O)c(C=NCCN(CC)CC)c(=O)[nH]c2=O)cc1 | % | -1.5 |
| O=c1[nH]c(=O)n(CCc2ccccc2)c(O)c1C=NCCN1CCNCC1 | % | -4 |
| CN1CCc2c(c(N3CCCCC3)nc3n[nH]c(N)c23)C1 | % | -17.1 |
| COc1ccc(OC)c([C@@H](O)[C@H](C)NC(C)(C)C)c1 | % | -4.8 |
| COc1ccccc1N1CCN(Cc2c(F)cccc2F)CC1 | % | -1.1 |
| CC(=O)OC1N=C(c2ccccc2)c2ccccc2NC1=O (stereo not given) | % | -3.5 |
| Cc1nn(Cc2ccccc2Cl)c(Cl)c1C(=O)OCC(=O)NCc1ccco1 | % | -14 |
| O=C(CN1C2CCC1CC(O)(c1cccnc1)C2)Nc1ccc2c(c1)OCO2 (stereo not given) | % | 7.5 |
| CC(C)OC(=O)c1c(N)n(CC2CCCO2)c2nc3ccccc3nc12 (stereo not given) | % | -5.1 |
| CN1CCN(C(=O)OC2c3nccnc3C(=O)N2c2ccc(Cl)cn2)CC1 (stereo not given) | % | -7.6 |
| Cn1c(O)c(C=NCCCNC2CCCCC2)c(=O)n(C)c1=O | % | 1.2 |
| Cc1cc(OCC(=O)O)c2c3c(c(=O)oc2c1)CCCC3 | % | 5.7 |
| COc1ccc(OC)c(N2C(=O)NC(=O)C(CCc3ccncc3)(CCc3ccncc3)C2=O)c1 | % | 1 |
| COCCOC(=O)c1c(N)n(Cc2ccco2)c2nc3ccccc3nc12 | % | -13 |
| CN1CC=C2C(C#N)=C(N)C(C#N)(C#N)C(c3ccncc3)C2C1 (stereo not given) | % | -17 |
